We begin with a simple list: items and their reported dose excreted at 1 h.
- test.summary: Biodistribution of radiometal-DOTA-BBN conjugates in CF1 normal mice
- cond: CF-1, mouse, in vivo, iv, total radioactivity, Avg % ID, Urine, 1 hour post-injection
Report as a plain number; the unit % is understood.

Sample records with dose excreted at 1 h:
compound: CSCC[C@H](NC(=O)[C@H](CC(C)C)NC(=O)[C@H](Cc1cnc[nH]1)NC(=O)CNC(=O)[C@@H](NC(=O)[C@H](C)NC(=O)[C@H](Cc1c[nH]c2ccccc12)NC(=O)[C@H](CCC(N)=O)NC(=O)CCCCCCCNC(=O)CN1CCN(CC(=O)O)CCN(CC(=O)O)CCN(CC(=O)O)CC1)C(C)C)C(N)=O [111In-DOTA-8-Aoc-BBN[7-14]NH2, metal not drawn]
dose excreted at 1 h, %: 71.6
--
compound: CSCC[C@H](NC(=O)[C@H](CC(C)C)NC(=O)[C@H](Cc1c[nH]cn1)NC(=O)CNC(=O)[C@@H](NC(=O)[C@H](C)NC(=O)[C@H](Cc1c[nH]c2ccccc12)NC(=O)[C@H](CCC(N)=O)NC(=O)CCCCCCCCCCNC(=O)CN1CCN(CC(=O)O)CCN(CC(=O)O)CCN(CC(=O)O)CC1)C(C)C)C(N)=O [111In-DOTA-11-Aun-BBN[7-14]NH2, metal not drawn]
dose excreted at 1 h, %: 53.3
--
compound: CSCC[C@H](NC(=O)[C@H](CC(C)C)NC(=O)[C@H](Cc1c[nH]cn1)NC(=O)CNC(=O)[C@@H](NC(=O)[C@H](C)NC(=O)[C@H](Cc1c[nH]c2ccccc12)NC(=O)[C@H](CCC(N)=O)NC(=O)CCCCNC(=O)CN1CCN(CC(=O)O)CCN(CC(=O)O)CCN(CC(=O)O)CC1)C(C)C)C(N)=O [111In-DOTA-5-Ava-BBN[7-14]NH2, metal not drawn]
dose excreted at 1 h, %: 81.3

Query block: What measured dose excreted at 1 h goes with CSCC[C@H](NC(=O)[C@H](CC(C)C)NC(=O)[C@H](Cc1cnc[nH]1)NC(=O)CNC(=O)[C@@H](NC(=O)[C@H](C)NC(=O)[C@H](Cc1c[nH]c2ccccc12)NC(=O)[C@H](CCC(N)=O)NC(=O)CCNC(=O)CN1CCN(CC(=O)O)CCN(CC(=O)O)CCN(CC(=O)O)CC1)C(C)C)C(N)=O [111In-DOTA-β-Ala-BBN[7-14]NH2, metal not drawn] ?
Result block: 92.4

----------
Reported tissue uptake dose at 1 h values for the following compounds.
- test.summary: Biodistribution of radiometal-DOTA-BBN conjugates in CF1 normal mice
- cond: CF-1, mouse, in vivo, iv, total radioactivity, Avg % ID, Blood, 1 hour post-injection
Give your result in %ID as a bare value.

compound: CSCC[C@H](NC(=O)[C@H](CC(C)C)NC(=O)[C@H](Cc1c[nH]cn1)NC(=O)CNC(=O)[C@@H](NC(=O)[C@H](C)NC(=O)[C@H](Cc1c[nH]c2ccccc12)NC(=O)[C@H](CCC(N)=O)NC(=O)CCCCNC(=O)CN1CCN(CC(=O)O)CCN(CC(=O)O)CCN(CC(=O)O)CC1)C(C)C)C(N)=O [111In-DOTA-5-Ava-BBN[7-14]NH2, metal not drawn]
tissue uptake dose at 1 h / %ID: 0.45
//
compound: CSCC[C@H](NC(=O)[C@H](CC(C)C)NC(=O)[C@H](Cc1cnc[nH]1)NC(=O)CNC(=O)[C@@H](NC(=O)[C@H](C)NC(=O)[C@H](Cc1c[nH]c2ccccc12)NC(=O)[C@H](CCC(N)=O)NC(=O)CN1CCN(CC(=O)O)CCN(CC(=O)O)CCN(CC(=O)O)CC1)C(C)C)C(N)=O [111In-DOTA-0-BBN[7-14]NH2, metal not drawn]
tissue uptake dose at 1 h / %ID: 0.22
//
compound: CSCC[C@H](NC(=O)[C@H](CC(C)C)NC(=O)[C@H](Cc1cnc[nH]1)NC(=O)CNC(=O)[C@@H](NC(=O)[C@H](C)NC(=O)[C@H](Cc1c[nH]c2ccccc12)NC(=O)[C@H](CCC(N)=O)NC(=O)CCNC(=O)CN1CCN(CC(=O)O)CCN(CC(=O)O)CCN(CC(=O)O)CC1)C(C)C)C(N)=O [111In-DOTA-β-Ala-BBN[7-14]NH2, metal not drawn]
tissue uptake dose at 1 h / %ID: 0.23

Query block: Need tissue uptake dose at 1 h of CSCC[C@H](NC(=O)[C@H](CC(C)C)NC(=O)[C@H](Cc1c[nH]cn1)NC(=O)CNC(=O)[C@@H](NC(=O)[C@H](C)NC(=O)[C@H](Cc1c[nH]c2ccccc12)NC(=O)[C@H](CCC(N)=O)NC(=O)CCCCCCCCCCNC(=O)CN1CCN(CC(=O)O)CCN(CC(=O)O)CCN(CC(=O)O)CC1)C(C)C)C(N)=O [111In-DOTA-11-Aun-BBN[7-14]NH2, metal not drawn] , thanks.
Result block: 0.79

----------
Measured Avg % ID, Kidney, listed per entry for reference.
- test.summary: Biodistribution of radiometal-DOTA-BBN conjugates in CF1 normal mice
- cond: 1 hour post-injection
Response body: numeric value in % ID, unit text excluded.

Known results for compounds:
compound: CSCC[C@H](NC(=O)[C@H](CC(C)C)NC(=O)[C@H](Cc1cnc[nH]1)NC(=O)CNC(=O)[C@@H](NC(=O)[C@H](C)NC(=O)[C@H](Cc1c[nH]c2ccccc12)NC(=O)[C@H](CCC(N)=O)NC(=O)CN1CCN(CC(=O)O)CCN(CC(=O)O)CCN(CC(=O)O)CC1)C(C)C)C(N)=O [149Pm-DOTA-0-BBN[7-14]NH2]
property: Avg % ID, Kidney
result.units: % ID
numeric.readout: 0.34
--
compound: CSCC[C@H](NC(=O)[C@H](CC(C)C)NC(=O)[C@H](Cc1c[nH]cn1)NC(=O)CNC(=O)[C@@H](NC(=O)[C@H](C)NC(=O)[C@H](Cc1c[nH]c2ccccc12)NC(=O)[C@H](CCC(N)=O)NC(=O)CCCCNC(=O)CN1CCN(CC(=O)O)CCN(CC(=O)O)CCN(CC(=O)O)CC1)C(C)C)C(N)=O [177Lu-DOTA-5-Ava-BBN[7-14]NH2] [metal not drawn]
property: Avg % ID, Kidney
result.units: % ID
numeric.readout: 0.69

Now examine the next entry.
Query block: Return reported Avg % ID, Kidney; argument: CSCC[C@H](NC(=O)[C@H](CC(C)C)NC(=O)[C@H](Cc1c[nH]cn1)NC(=O)CNC(=O)[C@@H](NC(=O)[C@H](C)NC(=O)[C@H](Cc1c[nH]c2ccccc12)NC(=O)[C@H](CCC(N)=O)NC(=O)CCCCCCCCCCNC(=O)CN1CCN(CC(=O)O)CCN(CC(=O)O)CCN(CC(=O)O)CC1)C(C)C)C(N)=O [177Lu-DOTA-11-Aun-BBN[7-14]NH2] [metal not drawn]
Result block: 1.76

----------
- test.summary: Biodistribution of radiometal-DOTA-BBN conjugates in CF1 normal mice
- cond: 1 hour post-injection
property: Avg % ID/gm, Blood (% ID/gm)
Write the value in % ID/gm as a bare number.

compound: CSCC[C@H](NC(=O)[C@H](CC(C)C)NC(=O)[C@H](Cc1c[nH]cn1)NC(=O)CNC(=O)[C@@H](NC(=O)[C@H](C)NC(=O)[C@H](Cc1c[nH]c2ccccc12)NC(=O)[C@H](CCC(N)=O)NC(=O)CCCCCCCCCCNC(=O)CN1CCN(CC(=O)O)CCN(CC(=O)O)CCN(CC(=O)O)CC1)C(C)C)C(N)=O [177Lu-DOTA-11-Aun-BBN[7-14]NH2] [metal not drawn]
result.units: % ID/gm
numeric.readout: 0.78

compound: CSCC[C@H](NC(=O)[C@H](CC(C)C)NC(=O)[C@H](Cc1cnc[nH]1)NC(=O)CNC(=O)[C@@H](NC(=O)[C@H](C)NC(=O)[C@H](Cc1c[nH]c2ccccc12)NC(=O)[C@H](CCC(N)=O)NC(=O)CCCCCCCNC(=O)CN1CCN(CC(=O)O)CCN(CC(=O)O)CCN(CC(=O)O)CC1)C(C)C)C(N)=O [149Pm-DOTA-8-Aoc-BBN[7-14]NH2]
result.units: % ID/gm
numeric.readout: 0.12

Consider the additional compound presented here.
Query block: # query: Avg % ID/gm, Blood of entry CSCC[C@H](NC(=O)[C@H](CC(C)C)NC(=O)[C@H](Cc1cnc[nH]1)NC(=O)CNC(=O)[C@@H](NC(=O)[C@H](C)NC(=O)[C@H](Cc1c[nH]c2ccccc12)NC(=O)[C@H](CCC(N)=O)NC(=O)CCCCCCCNC(=O)CN1CCN(CC(=O)O)CCN(CC(=O)O)CCN(CC(=O)O)CC1)C(C)C)C(N)=O [177Lu-DOTA-8-Aoc-BBN[7-14]NH2] [metal not drawn]
Result block: 0.14
